Quick reference for TGI among some compounds
- Test system: M14 melanoma
- assay-summary: NCI tumour cell line growth inhibition, 48 h

Below are worked cases with known answers.
compound	TGI
CCOC(=O)CCc1c(C)[nH]c2c(C)c3c([nH]c4ccc(Cl)cc43)c(C)c2c1=O	18.5 µM
COc1cnc2c(c1)C(=O)c1c-2n(CCCN2CCN(CCO)CC2)c(=O)c2cc([N+](=O)[O-])ccc12	2.49 µM
Cc1cc(-c2nc3cc(F)ccc3s2)ccc1NC(=O)C(C)N (stereo not given)	9.74 µM
CCS/C(Nc1ccccc1)=C(\C#N)C(=O)N/N=C/c1ccc(Cl)cc1Cl	9.61 µM

GET /values?readout=TGI&item= COc1ccc(Nc2nc3ccccc3nc2C(=O)O)cc1
> 100 µM

###

- Test system: SK-MEL-5 melanoma
- assay-summary: NCI tumour cell line growth inhibition, 48 h
assay-readout: TGI

Previously resolved entries follow.
compound	target-under-test	value-reported
c1ccc2nc3cc4c(cc3nc2c1)NC12CCCCC1CC1=C(CCCC1)N42 (stereo unspecified)	SK-MEL-5 melanoma	5.16 µM
O=C(/N=C/c1c(O)c2ccccc2oc1=O)NC1CCCCC1	SK-MEL-5 melanoma	> 100 µM
CON	SK-MEL-5 melanoma	> 100 µM
CCCCCCCCCC(=O)CC(=O)c1c(O)cc(O)cc1O	SK-MEL-5 melanoma	28.6 µM
CCOc1cc(/C=N\NC(=O)N/N=C/c2ccc(O)c(OCC)c2)ccc1O	SK-MEL-5 melanoma	18 µM

What value of measured TGI is listed for CCCCCC(=O)Cc1cc(OC)cc2c1C(=O)Oc1cc(O)c(C(=O)O)c(CC(=O)CCCCC)c1O2 ?
> 100 µM

Could you share which TGI value was measured for COc1ccc(-n2c(=O)n(C)c(=O)n2-c2c(C)c(C)c(C)c(C)c2C)cc1 ?
> 100 µM

GET /values?readout=TGI&item= Nc1cnc2c(c1)c(=O)nc1n2CCS1
> 100 µM

Fill in: TGI of Cc1nc(N)sc1C(=O)/C=C/c1ccc([N+](=O)[O-])cc1 is ___
> 100 µM

// query TGI value for entry CC(C)(C)C[P+](C)(C)c1ccccc1
> 100 µM

Consider the compound shown here: CS[C@@]1(C(=O)Nc2ccc3[nH]nc(-c4ccc(OC(C)C)nc4)c3c2)CCN(CC(=O)N2CC=C(c3ccc(-c4ncn(C)n4)cc3)CC2)C1 What is its recorded TGI?
> 89.9 µM

Form field: reported TGI of CC(C)c1cccc(C(C)C)c1NC1=CC(=O)C(=O)c2ccccc21
> 100 µM

Can you share its TGI? I mean this compound: C/C(CN1C(=O)c2ccccc2C1=O)=N\NS(=O)(=O)c1ccc(F)cc1
> 100 µM

Tell me the measured TGI of C[n+]1c(-c2ccc(/C=N\NC(=O)c3ccc(C(=O)N/N=C/c4ccc(-c5cn6ccsc6[n+]5C)cc4)cc3)cc2)cn2ccsc21 , please.
34 µM

Using the record for O=C1C=C(Nc2ccccc2C(=O)CC(=O)C(=O)Nc2ccc(Cl)c(Cl)c2)c2ccccc2C1=O , report its TGI.
20.4 µM

Data request, read-out TGI, for OC1C2C=CCC1CCC2 (stereo unspecified)
> 100 µM

Sample Cc1onc(-c2c(F)cccc2Cl)c1C(=O)N[C@@H]1C(=O)N2[C@@H]1SC(C)(C)[C@@H]2C(=O)O — what was its TGI?
> 100 µM

State the recorded TGI for this entry: O=c1cc(-c2ccccc2Cl)[nH]c2cc3c(cc12)OCO3
2.03 µM

// TGI lookup, key: O=S(Cc1cc2c(cc1Br)OCO2)c1ccccc1 (stereo unspecified)
> 100 µM

Looking for the measured TGI of CC1(C)CC2CC(C)(CN2c2ncnc3ccc(Br)cc23)C1 (stereo unspecified) , can you help?
21.6 µM

Give its TGI value. Item: CCOC(=O)CCc1c(C)[nH]c2c(C)c3c([nH]c4ccc(Cl)cc43)c(C)c2c1=O
> 100 µM
